Target: intracellular HCV NS5B RdRp activity (Hepatitis C virus genotype 1b)
Sequence (P26663 2420-3010): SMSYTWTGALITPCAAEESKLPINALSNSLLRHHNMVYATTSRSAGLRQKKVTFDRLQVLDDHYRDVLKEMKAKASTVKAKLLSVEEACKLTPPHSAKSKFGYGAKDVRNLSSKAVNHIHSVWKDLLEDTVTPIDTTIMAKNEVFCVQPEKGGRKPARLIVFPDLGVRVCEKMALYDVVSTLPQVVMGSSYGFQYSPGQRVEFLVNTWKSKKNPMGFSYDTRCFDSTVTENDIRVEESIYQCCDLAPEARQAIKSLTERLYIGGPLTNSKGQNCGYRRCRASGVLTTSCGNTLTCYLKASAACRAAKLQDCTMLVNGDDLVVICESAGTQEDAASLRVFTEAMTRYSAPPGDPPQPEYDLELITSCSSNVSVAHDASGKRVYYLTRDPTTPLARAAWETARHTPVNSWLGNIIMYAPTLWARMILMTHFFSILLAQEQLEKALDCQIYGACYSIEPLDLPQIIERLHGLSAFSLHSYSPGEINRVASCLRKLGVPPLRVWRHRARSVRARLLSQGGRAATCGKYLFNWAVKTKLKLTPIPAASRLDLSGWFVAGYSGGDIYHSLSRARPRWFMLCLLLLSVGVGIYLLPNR
Test: BHK-NS5B-FRLuc reporter: intracellular NS5B RdRp activity
Format: cell-based
Details: 100 μM, 42 h, percent of DMSO controls
measure: BHK-NS5B FR Luc Inhibition (%)

structure-string	measured-value
O=C1N/C(=N\c2nnc(-c3ccc(Cl)cc3)s2)S/C1=C\c1ccc(Cl)cc1Cl	n.i.
O=C1N/C(=N\c2nnc(-c3ccc(Cl)cc3)s2)S/C1=C\c1c(F)cccc1Cl	n.i.
O=C1N/C(=N\c2nnc(-c3ccc(F)cc3)s2)S/C1=C\c1ccc(Cl)cc1Cl	n.i
O=C1N/C(=N\c2nnc(-c3ccc(Cl)cc3)s2)S/C1=C\c1ccccc1Cl	n.i.
